Target: Albumin (Bos taurus) (UniProt P02769)
Sequence (P02769 whole entry, looked up): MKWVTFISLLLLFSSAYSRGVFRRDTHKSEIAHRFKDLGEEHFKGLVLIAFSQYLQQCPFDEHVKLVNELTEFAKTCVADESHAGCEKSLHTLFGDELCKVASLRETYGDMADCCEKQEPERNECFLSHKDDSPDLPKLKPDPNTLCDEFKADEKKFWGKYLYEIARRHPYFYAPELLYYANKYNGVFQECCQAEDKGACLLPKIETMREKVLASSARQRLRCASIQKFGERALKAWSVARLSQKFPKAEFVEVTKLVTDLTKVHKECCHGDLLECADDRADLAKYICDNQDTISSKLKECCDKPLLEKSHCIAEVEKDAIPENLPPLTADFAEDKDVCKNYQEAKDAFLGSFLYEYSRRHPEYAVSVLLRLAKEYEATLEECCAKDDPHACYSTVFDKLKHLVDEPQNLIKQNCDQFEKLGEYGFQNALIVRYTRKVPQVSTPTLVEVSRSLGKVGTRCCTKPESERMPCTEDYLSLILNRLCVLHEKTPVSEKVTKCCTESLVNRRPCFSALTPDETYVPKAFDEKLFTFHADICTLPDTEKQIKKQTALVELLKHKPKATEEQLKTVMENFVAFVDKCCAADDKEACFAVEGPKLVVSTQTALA
Assay: compounds binding labelled BSA control protein – biochemical, small-molecule microarray, Alexa647 label, 635/667 nm fluorescence, artefact control for SMM control protein annotation, profiling panel (AID 1118);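 note: score merges 667 nm emission intensity and signal-to-noise per printed compound spot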
Conditions: BSA-A647 binding, fluorescence 635 nm, higher = more signal
Quick reference for composite z-score among some molecules

| molecule | targetUnderTest | composite z-score |
| --- | --- | --- |
| Cc1ccc(S[C@]2(C(=O)NCc3ccccc3)CC(=O)N(C3CCCCC3)[C@@H]2c2ccc(CO)cc2I)cc1 | Albumin (Bos taurus) (UniProt P02769) | 0.0863 |
| CCCC1(C(=O)OC)C=C2C(=C(C)C(=O)C2C)CN1 (stereo unspecified) | Albumin (Bos taurus) (UniProt P02769) | -0.15 |
| COc1ccc(C#Cc2ccc3c(c2)[C@]2(C(=O)N3)[C@H](C(=O)O)[C@H]3C(=O)O[C@H](c4ccccc4)[C@H](c4ccccc4)N3[C@@H]2c2ccc(O)cc2)cc1 | Albumin (Bos taurus) (UniProt P02769) | 0.314 |
| COC(=O)[C@]1(CCS(=O)(=O)c2ccccc2)N=C(c2ccc(OCCCO)cc2)O[C@@H]1c1ccccc1N=[N+]=[N-] | Albumin (Bos taurus) (UniProt P02769) | -0.325 |
| [N-]=[N+]=Nc1ccccc1C[C@]1(C(=O)NCCN2CCOCC2)COC(c2ccc(OCCCO)cc2)=N1 | Albumin (Bos taurus) (UniProt P02769) | 0.18 |

Data request: Note down composite z-score recorded for C=C[C@H]1C(C(=O)OCC)=CC[C@@H](c2ccccc2)N1S(=O)(=O)c1ccc(C)cc1
Data returned: 0.644

Data request: Note down composite z-score recorded for CCCCCN1CC=CC23O[C@@H]4/C=C\CCCOC(=O)C4[C@H]2C(=O)N(C(C)CO)[C@@H]3C1=O (stereo partly specified)
Data returned: 0.356

Data request: Note down composite z-score recorded for CN1C2C=C(CCCO)C(C3C(=O)N(C(N)=O)C(=O)C32)C1C1CC1 (stereo unspecified)
Data returned: -0.0873

Data request: Note down composite z-score recorded for C=CCN1Cc2ccccc2[C@@H]2OC(c3ccc(OCCCO)cc3)=N[C@]2(CC=C)C1=O
Data returned: -0.187

Data request: Note down composite z-score recorded for COCCCNC(=O)[C@@H]1c2ccccc2C(=O)N(C(C)C)[C@H]1c1ccc(CO)cc1
Data returned: 0.0913

Data request: Note down composite z-score recorded for Cc1ccc(N2C(=O)c3ccccc3[C@@H](C(=O)NCCCN(C)C)[C@@H]2c2ccc(CO)cc2)nc1
Data returned: -0.0424
